# target or system: T1, GABAAR-associated protein (GABARAP) (mouse, UniProt Q9DCD6 1-117)
# T1 construct: GABARAP, mouse, UniProt Q9DCD6; the thioredoxin-His6 tag was removed 'when needed'; also called GABARAP WT; source: E. coli BL21 (DE3), purified (nickel-NTA, size exclusion)
# T1 sequence (Q9DCD6 whole entry): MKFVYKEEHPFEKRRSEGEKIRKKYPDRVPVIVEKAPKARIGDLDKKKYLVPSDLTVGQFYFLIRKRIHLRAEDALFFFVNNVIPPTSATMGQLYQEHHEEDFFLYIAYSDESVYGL
# experimental details: ITC; VP-ITC, 25 °C; 50 mM Tris pH 7.8, 100 mM NaCl, 1 mM EDTA, 1 mM DTT; γ2 subunit protein or peptide (100–200 μM) injected into GABARAP, GABARAPL1 or AP2 (10–20 μM) in the cell; one-site binding model
# cond: both partners purified
assay endpoint: pKd
One number for each entry, as −log10 of the molar value.

Ask | Give a short answer stating reported pKd for ERDETYGYECLDGKDCAS (peptide, UniProt P22723-2 398-415, looked up, source: E. coli BL21 (DE3), purified (nickel-NTA, size exclusion)) [γ2-GIM E402T variant] .
Reply | 5.08

Values from paper PMC7803741
